Reference for the values: patent US20240400654A1

testSystem: HRgpA-6H (Porphyromonas gingivalis) (UniProt P28784)
assayMethodText: ELISA, coated HRgpA-6H
Measured Ratio OD(Variant)/OD(WT) accompanies every entry in the list below.
reportedMetric: Ratio OD(Variant)/OD(WT)

| binder | reportedMetric | measValue |
| --- | --- | --- |
| KB001 mouse Fab VH G99Y (Fab, V domains shown) VH: EVQLKQSGPGLVAPSQSLSITCTVSGFSLSIYSVHWVRQPPGKGLEWLGMIWGGGSSDYNSALKSRLSISKDNSKSQVFLKMNSLQTDDTAMYYCARNYNFYAMDYWGQGTSVTVSS VL: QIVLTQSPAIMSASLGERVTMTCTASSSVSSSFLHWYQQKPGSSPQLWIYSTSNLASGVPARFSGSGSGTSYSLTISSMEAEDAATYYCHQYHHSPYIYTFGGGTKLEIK | Ratio OD(Variant)/OD(WT) | 1.05 |
| KB001 mouse Fab VL S32Q (Fab, V domains shown) VH: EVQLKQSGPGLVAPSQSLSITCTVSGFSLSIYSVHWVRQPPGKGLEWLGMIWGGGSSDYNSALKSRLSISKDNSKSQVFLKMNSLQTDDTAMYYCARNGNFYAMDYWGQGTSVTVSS VL: QIVLTQSPAIMSASLGERVTMTCTASSSVSSQFLHWYQQKPGSSPQLWIYSTSNLASGVPARFSGSGSGTSYSLTISSMEAEDAATYYCHQYHHSPYIYTFGGGTKLEIK | Ratio OD(Variant)/OD(WT) | 0.847 |
| KB001 mouse Fab VH S30T (Fab, V domains shown) VH: EVQLKQSGPGLVAPSQSLSITCTVSGFSLTIYSVHWVRQPPGKGLEWLGMIWGGGSSDYNSALKSRLSISKDNSKSQVFLKMNSLQTDDTAMYYCARNGNFYAMDYWGQGTSVTVSS VL: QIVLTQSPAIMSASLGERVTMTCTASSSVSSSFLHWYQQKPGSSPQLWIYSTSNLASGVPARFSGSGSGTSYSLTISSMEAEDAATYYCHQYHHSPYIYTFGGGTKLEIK | Ratio OD(Variant)/OD(WT) | 0.906 |
| KB001 mouse Fab VL S32Y (Fab, V domains shown) VH: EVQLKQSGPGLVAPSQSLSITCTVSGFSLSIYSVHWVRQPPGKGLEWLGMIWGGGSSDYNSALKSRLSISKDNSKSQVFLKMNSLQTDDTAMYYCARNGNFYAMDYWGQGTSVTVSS VL: QIVLTQSPAIMSASLGERVTMTCTASSSVSSYFLHWYQQKPGSSPQLWIYSTSNLASGVPARFSGSGSGTSYSLTISSMEAEDAATYYCHQYHHSPYIYTFGGGTKLEIK | Ratio OD(Variant)/OD(WT) | 0.891 |
| KB001 mouse Fab VH K64Y (Fab, V domains shown) VH: EVQLKQSGPGLVAPSQSLSITCTVSGFSLSIYSVHWVRQPPGKGLEWLGMIWGGGSSDYNSALYSRLSISKDNSKSQVFLKMNSLQTDDTAMYYCARNGNFYAMDYWGQGTSVTVSS VL: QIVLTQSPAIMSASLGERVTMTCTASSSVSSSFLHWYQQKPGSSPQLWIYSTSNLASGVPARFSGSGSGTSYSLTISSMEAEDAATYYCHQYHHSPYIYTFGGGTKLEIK | Ratio OD(Variant)/OD(WT) | 0.923 |
